# Lookup of reported relative viability keyed by entry
Tested on: NCI-H520
Assay: relative viability (nuclei count vs DMSO), 5 days (fraction); higher = more cells survive
Conditions: first compound 0.4 µM
Please give only the number in your answer, with no unit.

molecule	relative viability
COc1cc(N2CCC(C(N)=O)CC2)ccc1Nc1nc(N)c(Cl)c(Nc2ccccc2S(=O)(=O)C(C)C)n1 [HG-5-88-01] + O=C(CCCCCCC(=O)Nc1ccccc1)NO [Vorinostat] (partner 1 µM)	0.803
Clc1ccc(Nc2nnc(Cc3ccncc3)c3ccccc23)cc1 [Vatalanib] + O=C(CCCCCCC(=O)Nc1ccccc1)NO [Vorinostat] (partner 1 µM)	0.817

Task: State the recorded relative viability for this entry: COc1cc(N2CCC(C(N)=O)CC2)ccc1Nc1nc(N)c(Cl)c(Nc2ccccc2S(=O)(=O)C(C)C)n1 [HG-5-88-01] + CC(C)C[C@H](NC(=O)[C@H](Cc1ccccc1)NC(=O)c1cnccn1)B(O)O [Bortezomib] (partner 0.002 µM)
Result: 0.304

Task: # get_value(readout='relative viability', item= Clc1ccc(Nc2nnc(Cc3ccncc3)c3ccccc23)cc1 [Vatalanib] + Cc1cc(Nc2cc(N3CCN(C)CC3)nc(Sc3ccc(NC(=O)C4CC4)cc3)n2)n[nH]1 [Tozasertib] (partner 0.1 µM) )
Result: 0.467

Task: What measured relative viability goes with Clc1ccc(Nc2nnc(Cc3ccncc3)c3ccccc23)cc1 [Vatalanib] + Nc1nc2[nH]cc(CCc3ccc(C(=O)N[C@@H](CCC(=O)O)C(=O)O)cc3)c2c(=O)[nH]1 [Pemetrexed] (partner 0.2 µM) ?
Result: 0.751

Task: Recorded relative viability for COc1cc(N2CCC(C(N)=O)CC2)ccc1Nc1nc(N)c(Cl)c(Nc2ccccc2S(=O)(=O)C(C)C)n1 [HG-5-88-01] + CS(=O)(=O)CCNCc1ccc(-c2ccc3ncnc(Nc4ccc(OCc5cccc(F)c5)c(Cl)c4)c3c2)o1 [Lapatinib] (partner 2 µM) , please?
Result: 0.401

Task: Suppose we examine the molecule C[C@@H]1CN(CC(=O)Nc2ccc3c(c2)Cc2cccc(-c4cc(=O)cc(N5CCOCC5)o4)c2S3)C[C@H](C)O1 + Nc1ncn([C@H]2C[C@H](O)[C@@H](CO)O2)c(=O)n1 [Decitabine] (partner 2 µM) ; what relative viability value has been reported?
Result: 0.449

Task: Value lookup for relative viability; key = C[C@@H]1CN(CC(=O)Nc2ccc3c(c2)Cc2cccc(-c4cc(=O)cc(N5CCOCC5)o4)c2S3)C[C@H](C)O1 + C[C@]1(O)C[C@@H](c2nc(-c3ccc4ccc(-c5ccccc5)nc4c3)c3c(N)nccn32)C1 [Linsitinib] (partner 1 µM)
Result: 0.748

Task: Given the entry C[C@@H]1CN(CC(=O)Nc2ccc3c(c2)Cc2cccc(-c4cc(=O)cc(N5CCOCC5)o4)c2S3)C[C@H](C)O1 + CS(=O)(=O)CCNCc1ccc(-c2ccc3ncnc(Nc4ccc(OCc5cccc(F)c5)c(Cl)c4)c3c2)o1 [Lapatinib] (partner 2 µM) , report its measured relative viability.
Result: 0.682

----------
Property: relative viability; scope: individual compounds
Test system: NCI-H2228
Assay: relative viability (nuclei count vs DMSO), 5 days (fraction); higher = more cells survive
Details: first compound 0.04 µM
Answer with a number only.

compound	relative viability
C[C@@H]1CN(CC(=O)Nc2ccc3c(c2)Cc2cccc(-c4cc(=O)cc(N5CCOCC5)o4)c2S3)C[C@H](C)O1 + CS(=O)(=O)N1CCN(Cc2cc3nc(-c4cccc5[nH]ncc45)nc(N4CCOCC4)c3s2)CC1 [Pictilisib] (partner 1 µM)	0.355
COc1cc(N2CCC(C(N)=O)CC2)ccc1Nc1nc(N)c(Cl)c(Nc2ccccc2S(=O)(=O)C(C)C)n1 [HG-5-88-01] + Cc1cc(Nc2cc(N3CCN(C)CC3)nc(Sc3ccc(NC(=O)C4CC4)cc3)n2)n[nH]1 [Tozasertib] (partner 0.1 µM)	0.259
C[C@@H]1CN(CC(=O)Nc2ccc3c(c2)Cc2cccc(-c4cc(=O)cc(N5CCOCC5)o4)c2S3)C[C@H](C)O1 + Nc1nc2[nH]cc(CCc3ccc(C(=O)N[C@@H](CCC(=O)O)C(=O)O)cc3)c2c(=O)[nH]1 [Pemetrexed] (partner 0.2 µM)	0.333

Let's switch to this compound now.
Task: So what does the record say about relative viability for COc1cc(N2CCC(C(N)=O)CC2)ccc1Nc1nc(N)c(Cl)c(Nc2ccccc2S(=O)(=O)C(C)C)n1 [HG-5-88-01] + CCNC(=O)c1noc(-c2cc(C(C)C)c(O)cc2O)c1-c1ccc(CN2CCOCC2)cc1 [Luminespib] (partner 0.01 µM) ?
Result: 0.117

----------
Tested on: NCI-H1395
Test: relative viability (nuclei count vs DMSO), 5 days (fraction); higher = more cells survive
Details: first compound 0.8 µM
relative viability reference
Lab note: record the figure alone, no unit after it.

These recorded examples may help you get a feel for the data.
compound	relative viability
CCCCCCCCCCCC1=C(O)C(=O)C=C(O)C1=O [Embelin] + CC1(C)CCC(c2ccc(Cl)cc2)=C(CN2CCN(c3ccc(C(=O)NS(=O)(=O)c4ccc(N[C@H](CCN5CCOCC5)CSc5ccccc5)c(S(=O)(=O)C(F)(F)F)c4)cc3)CC2)C1 [Navitoclax] (partner 0.5 µM)	1.42
CCCCCCCCCCCC1=C(O)C(=O)C=C(O)C1=O [Embelin] + O=C(CCCCCCC(=O)Nc1ccccc1)NO [Vorinostat] (partner 1 µM)	1
CCCCCCCCCCCC1=C(O)C(=O)C=C(O)C1=O [Embelin] + Nc1nc2[nH]cc(CCc3ccc(C(=O)N[C@@H](CCC(=O)O)C(=O)O)cc3)c2c(=O)[nH]1 [Pemetrexed] (partner 0.2 µM)	1.03

Task: Can you share its relative viability? I mean this compound: CCCCCCCCCCCC1=C(O)C(=O)C=C(O)C1=O [Embelin] + Cc1cc(Nc2cc(N3CCN(C)CC3)nc(Sc3ccc(NC(=O)C4CC4)cc3)n2)n[nH]1 [Tozasertib] (partner 0.1 µM)
Result: 0.725

----------
System: NCI-H1915
Experiment: relative viability (nuclei count vs DMSO), 5 days (fraction); higher = more cells survive
Settings: first compound 0.01 µM
Listed next: entries and their corresponding relative viability.
Answer using only a numeral; do not append any unit.

compound	relative viability
CC(C)Oc1cc(Nc2nc(N[C@@H](C)c3ccc(F)cn3)ncc2Cl)n[nH]1 [AZ23] + Cc1cc(Nc2cc(N3CCN(C)CC3)nc(Sc3ccc(NC(=O)C4CC4)cc3)n2)n[nH]1 [Tozasertib] (partner 0.1 µM)	0.479
CC(C)Oc1cc(Nc2nc(N[C@@H](C)c3ccc(F)cn3)ncc2Cl)n[nH]1 [AZ23] + CC1(C)CCC(c2ccc(Cl)cc2)=C(CN2CCN(c3ccc(C(=O)NS(=O)(=O)c4ccc(N[C@H](CCN5CCOCC5)CSc5ccccc5)c(S(=O)(=O)C(F)(F)F)c4)cc3)CC2)C1 [Navitoclax] (partner 0.5 µM)	0.799
CC(C)Oc1cc(Nc2nc(N[C@@H](C)c3ccc(F)cn3)ncc2Cl)n[nH]1 [AZ23] + Nc1ncn([C@H]2C[C@H](O)[C@@H](CO)O2)c(=O)n1 [Decitabine] (partner 2 µM)	0.293
CC(C)Oc1cc(Nc2nc(N[C@@H](C)c3ccc(F)cn3)ncc2Cl)n[nH]1 [AZ23] + Cc1nc(NC(=O)N2CCC[C@H]2C(N)=O)sc1-c1ccnc(C(C)(C)C(F)(F)F)c1 [Alpelisib] (partner 2 µM)	1.17

Task: Name the recorded relative viability for CC(C)Oc1cc(Nc2nc(N[C@@H](C)c3ccc(F)cn3)ncc2Cl)n[nH]1 [AZ23] + Cc1nc(Nc2ncc(C(=O)Nc3c(C)cccc3Cl)s2)cc(N2CCN(CCO)CC2)n1 [Dasatinib] (partner 0.075 µM) .
Result: 0.33

----------
System: SW 1573
Assay: relative viability (nuclei count vs DMSO), 5 days (fraction); higher = more cells survive
Details: first compound 0.4 µM
relative viability overview
Please state the value as a number alone, without comment.

Before answering, review these 5 worked examples.
compound	relative viability
C[C@@H]1CN(CC(=O)Nc2ccc3c(c2)Cc2cccc(-c4cc(=O)cc(N5CCOCC5)o4)c2S3)C[C@H](C)O1 + Nc1ncn([C@H]2C[C@H](O)[C@@H](CO)O2)c(=O)n1 [Decitabine] (partner 2 µM)	0.483
Clc1ccc(Nc2nnc(Cc3ccncc3)c3ccccc23)cc1 [Vatalanib] + CC(=O)Nc1cccc(-n2c(=O)n(C3CC3)c(=O)c3c(Nc4ccc(I)cc4F)n(C)c(=O)c(C)c32)c1 [Trametinib] (partner 0.02 µM)	0.607
C[C@@H]1CN(CC(=O)Nc2ccc3c(c2)Cc2cccc(-c4cc(=O)cc(N5CCOCC5)o4)c2S3)C[C@H](C)O1 + N=C(N)NC(=N)NCCc1ccccc1 [Phenformin] (partner 250 µM)	0.301
C[C@@H]1CN(CC(=O)Nc2ccc3c(c2)Cc2cccc(-c4cc(=O)cc(N5CCOCC5)o4)c2S3)C[C@H](C)O1 + C[C@@H](Oc1cc(-c2cnn(C3CCNCC3)c2)cnc1N)c1c(Cl)ccc(F)c1Cl [Crizotinib] (partner 1 µM)	0.744
Clc1ccc(Nc2nnc(Cc3ccncc3)c3ccccc23)cc1 [Vatalanib] + CC1(C)CCC(c2ccc(Cl)cc2)=C(CN2CCN(c3ccc(C(=O)NS(=O)(=O)c4ccc(N[C@H](CCN5CCOCC5)CSc5ccccc5)c(S(=O)(=O)C(F)(F)F)c4)cc3)CC2)C1 [Navitoclax] (partner 0.5 µM)	1.02

Task: What value of relative viability has been reported for the following compound? C[C@@H]1CN(CC(=O)Nc2ccc3c(c2)Cc2cccc(-c4cc(=O)cc(N5CCOCC5)o4)c2S3)C[C@H](C)O1 + COc1cc2c(Oc3ccc(NC(=O)C4(C(=O)Nc5ccc(F)cc5)CC4)cc3F)ccnc2cc1OCCCN1CCOCC1 [Foretinib] (partner 0.25 µM)
Result: 0.936

Task: Please give the measured relative viability for this compound: COc1cc(N2CCC(C(N)=O)CC2)ccc1Nc1nc(N)c(Cl)c(Nc2ccccc2S(=O)(=O)C(C)C)n1 [HG-5-88-01] + N=C(N)NC(=N)NCCc1ccccc1 [Phenformin] (partner 250 µM)
Result: 0.324

Task: Form field: reported relative viability of COc1cc(N2CCC(C(N)=O)CC2)ccc1Nc1nc(N)c(Cl)c(Nc2ccccc2S(=O)(=O)C(C)C)n1 [HG-5-88-01] + COc1cccc2cc(-c3nc([C@H]4CC[C@H](C(=O)O)CC4)n4ncnc(N)c34)[nH]c12 [OSI-027] (partner 0.5 µM)
Result: 0.359
